B1: tRNA (parent)
chain: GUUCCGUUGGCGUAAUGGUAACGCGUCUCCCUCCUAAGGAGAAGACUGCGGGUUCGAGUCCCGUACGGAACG

variants of: B1; test: yeast fitness relative to wild type (ratio to wild type); higher = fitter; tRNA-Arg(CCU), competitive growth, 37 C, YPD
Variants at the floor of the assay were thinned out.
endpoint.label: yeast fitness
# print the numeric value only

Worked examples follow.
C29G G44C C49G A57C = 0.598
C22A G68A = 0.869
G6A U13G = 0.731
C29G A37U C55G = 0.549
U8C G10A G67C = 0.592

# context switch: different variant, same yeast fitness
The variant listed as A40C C49G has a reported yeast fitness of 0.804
